Where these numbers come from: patent US20250368619A1

- ASSAYED TARGET: ERα (Homo sapiens, UniProt P03372)
- Construct: host or cells: MCF7
- ASSAY REMARKS: Estrogen receptor degradation activity: breast cancer cell ERα in cell western assay in MCF7 cells
- Format: cell-based
- MEASUREMENT PARAMETERS: 4 hours, relative to fulvestrant 0.1 μM positive control
PROPERTY MEASURED: % Degradation At 0.3 μM (%)

Cc1c(Cl)cccc1C1=C(c2ccc(C=C3CN(CCCF)C3)cc2)c2ccc3[nH]ccc3c2CCC1 [Compound 3]: 91
OCc1ccc(C2=C(c3ccc(CC4CN(CCCF)C4)cc3)c3ccc4[nH]ccc4c3CCC2)cc1 [Compound 20]: 76
FCCCN1CC(Cc2ccc(C3=C(c4ccc(Cl)cc4Cl)CCCc4c3ccc3[nH]ccc43)cc2)C1 [Compound 7]: 82
COc1cc(C2=C(c3ccc(CC4CN(CCCF)C4)cc3)c3ccc4[nH]ccc4c3CCC2)ccn1 [Compound 14]: 91
Cc1cc(F)ccc1C1=C(c2ccc(CC3CN(CCCF)C3)cc2)c2ccc3[nH]ccc3c2CCC1 [Compound 1]: 80
FCCCN1CC[C@H](Oc2ccc(C3=C(C4=CCC(F)(F)CC4)CCCc4c3ccc3[nH]ccc43)cc2)C1 [Compound 5]: 95
Oc1c(F)ccc(C2=C(c3ccc(CC4CN(CCCF)C4)cc3)c3ccc4[nH]ccc4c3CCC2)c1F [Compound 6]: 90

###

- ASSAYED TARGET: ERα (Homo sapiens)
- Construct: host or cells: MCF7
- ASSAY REMARKS: Estrogen receptor degradation activity: breast cancer cell ERα in cell western assay in MCF7 cells
- Assay type: cell-based
- MEASUREMENT PARAMETERS: 4 hours, relative to fulvestrant 0.1 μM positive control
PROPERTY MEASURED: % Degradation At 0.3 μM (%)

O=C(O)/C=C/C1=C(c2ccc(CC3CN(CCCF)C3)cc2)c2ccc3[nH]ccc3c2CCC1: 92
CC(C)(O)/C=C/C1=C(c2ccc(CC3CN(CCCF)C3)cc2)c2ccc3[nH]ccc3c2CCC1: 77
Cc1c(Cl)cccc1C1=C(c2ccc(/C=C3/CCN(CCCF)C3)cc2)c2ccc3[nH]ccc3c2CCC1: 91
FCCCN1CC(Cc2ccc(C3=C(c4cccc(C(F)(F)F)c4)CCCc4c3ccc3[nH]ccc43)cc2)C1: 73
OCc1cccc(C2=C(c3ccc(CC4CN(CCCF)C4)cc3)c3ccc4[nH]ccc4c3CCC2)c1: 71
OCCc1cccc(C2=C(c3ccc(CC4CN(CCCF)C4)cc3)c3ccc4[nH]ccc4c3CCC2)c1: 65
O=C(O)c1cccc(C2=C(c3ccc(CC4CN(CCCF)C4)cc3)c3ccc4[nH]ccc4c3CCC2)c1: 68

###

- ASSAYED TARGET: ERα (Homo sapiens)
- Construct: host or cells: MCF7
- Sequence (P03372 1-595): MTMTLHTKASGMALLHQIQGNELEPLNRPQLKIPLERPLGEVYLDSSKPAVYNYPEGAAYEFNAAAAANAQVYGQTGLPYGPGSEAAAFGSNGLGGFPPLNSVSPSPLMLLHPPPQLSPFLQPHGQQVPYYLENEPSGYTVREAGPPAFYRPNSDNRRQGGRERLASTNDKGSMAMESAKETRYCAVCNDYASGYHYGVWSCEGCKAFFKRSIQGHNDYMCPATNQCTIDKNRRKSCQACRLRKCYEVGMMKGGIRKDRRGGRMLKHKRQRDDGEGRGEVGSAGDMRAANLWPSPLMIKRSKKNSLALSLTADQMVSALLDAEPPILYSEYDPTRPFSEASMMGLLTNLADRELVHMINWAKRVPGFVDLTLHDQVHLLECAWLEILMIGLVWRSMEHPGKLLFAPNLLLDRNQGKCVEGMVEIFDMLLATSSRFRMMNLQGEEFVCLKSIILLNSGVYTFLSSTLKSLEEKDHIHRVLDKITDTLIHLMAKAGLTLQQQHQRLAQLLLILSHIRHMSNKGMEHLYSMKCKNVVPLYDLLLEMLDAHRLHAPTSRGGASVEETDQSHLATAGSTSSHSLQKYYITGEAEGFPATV
- ASSAY REMARKS: Estrogen receptor degradation activity: breast cancer cell ERα in cell western assay in MCF7 cells
- Type: cell-based
- MEASUREMENT PARAMETERS: 4 hours, relative to fulvestrant 0.1 μM positive control
PROPERTY MEASURED: % Degradation At 0.3 μM (%)

O=C(O)C(F)(F)F.O=C(O)c1ccc(C2=C(c3ccc(CC4CN(CCCF)C4)cc3)c3ccc4[nH]ccc4c3CCC2)cc1: 80
COc1cccc(C2=C(c3ccc(CC4CN(CCCF)C4)cc3)c3ccc4[nH]ccc4c3CCC2)c1OC: 80
Cc1c(Cl)cccc1C1=C(c2ccc(CC3CN(CCCF)C3)cc2)c2ccc3[nH]ccc3c2CCC1: 83
COc1ccc(C2=C(c3ccc(CC4CN(CCCF)C4)cc3)c3ccc4[nH]ccc4c3CCC2)cn1: 91
